Recorded measurements of kon, one per entry
Target: T1, Human SIRPαV1 (NP_542970.1), Extracellular Domain + His-Tag (human, UniProt P78324 31-373)
T1 construct: also called huSIRPαV1; hSIRPαV1; not shown: His-Tag
T1 sequence (P78324 other isoform, or with tags, fused parts or gaps): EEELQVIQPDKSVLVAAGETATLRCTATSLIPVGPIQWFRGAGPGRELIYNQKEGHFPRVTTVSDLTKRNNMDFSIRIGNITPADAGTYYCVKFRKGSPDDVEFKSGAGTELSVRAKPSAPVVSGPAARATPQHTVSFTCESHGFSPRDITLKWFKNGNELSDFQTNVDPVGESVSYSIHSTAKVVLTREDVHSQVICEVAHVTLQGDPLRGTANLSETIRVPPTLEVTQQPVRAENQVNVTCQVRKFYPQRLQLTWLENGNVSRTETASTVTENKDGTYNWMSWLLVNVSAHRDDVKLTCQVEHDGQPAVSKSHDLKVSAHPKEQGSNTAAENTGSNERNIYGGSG
Assay: SPR, antibody captured on Protein A/G, ECD-His analyte, 1:1 fit
Give the value in M⁻¹ s⁻¹ but do not write M⁻¹ s⁻¹ after it.

Solved cases (2 shown):
Antibody A15 (antibody, human IgG1, kappa, L234A L235A, V domains shown) VH: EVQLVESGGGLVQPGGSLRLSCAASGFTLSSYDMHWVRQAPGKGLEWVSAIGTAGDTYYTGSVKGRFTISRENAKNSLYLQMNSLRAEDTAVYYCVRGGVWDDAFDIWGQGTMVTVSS VL: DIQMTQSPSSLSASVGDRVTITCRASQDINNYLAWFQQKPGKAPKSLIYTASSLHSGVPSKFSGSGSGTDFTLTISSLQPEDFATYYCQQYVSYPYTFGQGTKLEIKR: 526000
Antibody A12 (antibody, human IgG1, kappa, L234A L235A, V domains shown) VH: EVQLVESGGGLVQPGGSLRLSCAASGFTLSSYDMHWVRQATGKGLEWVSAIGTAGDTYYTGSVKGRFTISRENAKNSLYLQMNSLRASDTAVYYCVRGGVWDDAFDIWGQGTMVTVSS VL: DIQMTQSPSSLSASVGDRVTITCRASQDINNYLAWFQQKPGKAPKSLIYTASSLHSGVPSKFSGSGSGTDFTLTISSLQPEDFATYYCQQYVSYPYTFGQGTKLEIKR: 482000

Using the record for Antibody E18 (antibody, human IgG1, kappa, L234A L235A, V domains shown) VH: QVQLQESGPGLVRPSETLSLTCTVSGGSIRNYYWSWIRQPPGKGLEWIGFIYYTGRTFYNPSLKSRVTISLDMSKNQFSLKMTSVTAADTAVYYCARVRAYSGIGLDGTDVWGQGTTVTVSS VL: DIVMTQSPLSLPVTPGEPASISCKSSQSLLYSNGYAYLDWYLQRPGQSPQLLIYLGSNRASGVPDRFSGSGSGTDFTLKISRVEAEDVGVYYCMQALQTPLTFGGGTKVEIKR , report its kon.
410000
